Values were extracted from patent US5811456A.

Target: rat brain MAO A (Rattus norvegicus)
Construct: makes it possible to obtain a pellet enriched in mitochondria; from tissue; host or cells: Wistar rat brain without cerebellum, mitochondria-enriched pellet
Sequence (P21396 whole entry): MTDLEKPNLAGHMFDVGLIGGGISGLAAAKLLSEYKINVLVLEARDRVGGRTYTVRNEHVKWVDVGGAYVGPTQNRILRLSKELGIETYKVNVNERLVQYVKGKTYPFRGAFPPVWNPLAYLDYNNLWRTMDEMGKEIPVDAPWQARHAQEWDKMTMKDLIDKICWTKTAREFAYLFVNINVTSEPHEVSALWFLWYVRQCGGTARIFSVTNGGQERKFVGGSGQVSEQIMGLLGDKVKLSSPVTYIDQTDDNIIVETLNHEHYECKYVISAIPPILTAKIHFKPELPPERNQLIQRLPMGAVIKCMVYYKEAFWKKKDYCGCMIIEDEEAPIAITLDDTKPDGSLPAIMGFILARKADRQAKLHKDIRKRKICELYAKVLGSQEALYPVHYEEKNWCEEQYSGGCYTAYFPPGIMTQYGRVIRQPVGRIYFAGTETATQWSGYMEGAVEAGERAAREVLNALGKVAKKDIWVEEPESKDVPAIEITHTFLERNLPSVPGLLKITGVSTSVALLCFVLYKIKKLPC
Assay: Inhibitory activity toward rat brain MAO A in vitro (14C-serotonin substrate)
Type: biochemical
Settings: wp: without preincubation
# Lookup of reported IC50 keyed by entry
# unit: µM | format: bare number

{"compound": "CC(=O)N(CCO)N=Cc1ccc(OCc2ccccc2)cc1", "system name": "rat brain MAO A (Rattus norvegicus)", "unit": "µM", "obs value": 50}

Now consider a different compound.
Measured IC50 of CC(=O)N(CCC#N)N=Cc1ccc(OCCc2ccccc2)cc1 : 53
